assay name: Plasma pharmacokinetics in patients
Assay type: in vivo, human
condition description: human, plasma, oral, 160 mg/m2, Cmax, day 1, 160 mg/m^2, n=8, mean ± SD
metric name: Cmax (ng/mL)

INSERT INTO assay_data (structure_notation, metric_name, unit_annotation, result_number) VALUES
  ('Cc1cc(Nc2cc(N3CCN(C)CC3)nc(/C=C/c3ccccc3)n2)n[nH]1', 'Cmax', 'ng/mL', 157);

---

assay name: Plasma pharmacokinetics in patients
Format: in vivo, human
condition description: human, plasma, oral, Mean terminal phase elimination half-life (t1/2), range, after a single dose
metric name: half-life

INSERT INTO assay_data (structure_notation, metric_name, result) VALUES
  ('Cc1cc(Nc2cc(N3CCN(C)CC3)nc(/C=C/c3ccccc3)n2)n[nH]1', 'half-life', '27.3 to 38.3 h');

---

assay name: Plasma pharmacokinetics in patients
Type: in vivo, human
condition description: human, plasma, oral, 200 mg/m2, Cmax, day 28, 200 mg/m^2, n=4, mean ± SD
metric name: Cmax (ng/mL)

INSERT INTO results (structure_notation, result_number) VALUES
  ('Cc1cc(Nc2cc(N3CCN(C)CC3)nc(/C=C/c3ccccc3)n2)n[nH]1', 557);

---

assay name: Plasma pharmacokinetics in patients
Format: in vivo, human
condition description: human, plasma, oral, 200 mg/m2, t1/2, day 1, 200 mg/m^2, n=5, mean ± SD
metric name: half-life (h)

INSERT INTO measurements (molecule, metric_name, result_number) VALUES
  ('Cc1cc(Nc2cc(N3CCN(C)CC3)nc(/C=C/c3ccccc3)n2)n[nH]1 [ENMD-2076]', 'half-life', 38.3);

---

assay name: Plasma pharmacokinetics in patients
Format: in vivo, human
condition description: human, plasma, oral, 160 mg/m2, Tmax, day 1, 160 mg/m^2, n=8, mean ± SD
metric name: Tmax

INSERT INTO results (structure_notation, result) VALUES
  ('Cc1cc(Nc2cc(N3CCN(C)CC3)nc(/C=C/c3ccccc3)n2)n[nH]1', '3.5 h');

---

assay name: Plasma pharmacokinetics in patients
Assay type: in vivo, human
condition description: human, plasma, oral, 80 mg/m2, AUC(0-inf), day 28, 80 mg/m^2, n=3, mean ± SD
metric name: AUC(0-inf) (ng·h/mL)

INSERT INTO results (compound, metric_name, unit_annotation, result_number) VALUES
  ('Cc1cc(Nc2cc(N3CCN(C)CC3)nc(/C=C/c3ccccc3)n2)n[nH]1 [ENMD-2076]', 'AUC(0-inf)', 'ng·h/mL', 14700);

---

assay name: Plasma pharmacokinetics in patients
Assay type: in vivo, human
condition description: human, plasma, oral, 80 mg/m2, AUC(0-inf), day 1, 80 mg/m^2, n=4, mean ± SD
metric name: AUC(0-inf) (ng·h/mL)

INSERT INTO results (structure_notation, unit_annotation, result_number) VALUES
  ('Cc1cc(Nc2cc(N3CCN(C)CC3)nc(/C=C/c3ccccc3)n2)n[nH]1', 'ng·h/mL', 3850);

---

assay name: Plasma pharmacokinetics in patients
Type: in vivo, human
condition description: human, plasma, oral, 160 mg/m2, t1/2, day 28, 160 mg/m^2, n=5, mean ± SD
metric name: half-life

INSERT INTO assay_data (molecule, metric_name, result) VALUES
  ('Cc1cc(Nc2cc(N3CCN(C)CC3)nc(/C=C/c3ccccc3)n2)n[nH]1 [ENMD-2076]', 'half-life', '46.1 h');

---

assay name: Plasma pharmacokinetics in patients
Format: in vivo, human
condition description: human, plasma, oral, 160 mg/m2, Cmax, day 28, 160 mg/m^2, n=5, mean ± SD
metric name: Cmax (ng/mL)

INSERT INTO measurements (structure_notation, metric_name, result_number) VALUES
  ('Cc1cc(Nc2cc(N3CCN(C)CC3)nc(/C=C/c3ccccc3)n2)n[nH]1', 'Cmax', 558);

---

assay name: Plasma pharmacokinetics in patients
Format: in vivo, human
condition description: human, plasma, oral, 200 mg/m2, AUC(0-inf), day 1, 200 mg/m^2, n=5, mean ± SD
metric name: AUC(0-inf) (ng·h/mL)

INSERT INTO assay_data (structure_notation, unit_annotation, result_number) VALUES
  ('Cc1cc(Nc2cc(N3CCN(C)CC3)nc(/C=C/c3ccccc3)n2)n[nH]1', 'ng·h/mL', 10600);

---

assay name: Plasma pharmacokinetics in patients
Type: in vivo, human
condition description: human, plasma, oral, 200 mg/m2, AUC(0-inf), day 28, 200 mg/m^2, n=4, mean ± SD
metric name: AUC(0-inf) (ng·h/mL)

INSERT INTO measurements (compound, metric_name, result_number) VALUES
  ('Cc1cc(Nc2cc(N3CCN(C)CC3)nc(/C=C/c3ccccc3)n2)n[nH]1 [ENMD-2076]', 'AUC(0-inf)', 34500);

---

assay name: Plasma pharmacokinetics in patients
Format: in vivo, human
condition description: human, plasma, oral, 80 mg/m2, Tmax, day 28, 80 mg/m^2, n=3, mean ± SD
metric name: Tmax (h)

INSERT INTO results (structure_notation, result_number) VALUES
  ('Cc1cc(Nc2cc(N3CCN(C)CC3)nc(/C=C/c3ccccc3)n2)n[nH]1', 3.4);

---

assay name: Plasma pharmacokinetics in patients
Assay type: in vivo, human
condition description: human, plasma, oral, Tmax, range over all dose levels, day 28
metric name: Tmax

INSERT INTO assay_data (structure_notation, result) VALUES
  ('Cc1cc(Nc2cc(N3CCN(C)CC3)nc(/C=C/c3ccccc3)n2)n[nH]1', '2.7 to 4.7 h');

---

assay name: Plasma pharmacokinetics in patients
Format: in vivo, human
condition description: human, plasma, oral, 160 mg/m2, AUC(0-inf), day 1, 160 mg/m^2, n=8, mean ± SD
metric name: AUC(0-inf) (ng·h/mL)

INSERT INTO results (structure_notation, metric_name, result_number) VALUES
  ('Cc1cc(Nc2cc(N3CCN(C)CC3)nc(/C=C/c3ccccc3)n2)n[nH]1', 'AUC(0-inf)', 5940);

---

assay name: Plasma pharmacokinetics in patients
Format: in vivo, human
condition description: human, plasma, oral, 200 mg/m2, Tmax, day 28, 200 mg/m^2, n=4, mean ± SD
metric name: Tmax (h)

INSERT INTO measurements (structure_notation, result_number) VALUES
  ('Cc1cc(Nc2cc(N3CCN(C)CC3)nc(/C=C/c3ccccc3)n2)n[nH]1', 4.5);

---

assay name: Plasma pharmacokinetics in patients
Assay type: in vivo, human
condition description: human, plasma, oral, 60 mg/m2, Cmax, day 1, 60 mg/m^2, n=6, mean ± SD
metric name: Cmax

INSERT INTO measurements (structure_notation, result) VALUES
  ('Cc1cc(Nc2cc(N3CCN(C)CC3)nc(/C=C/c3ccccc3)n2)n[nH]1', '64 ng/mL');

---

assay name: Plasma pharmacokinetics in patients
Assay type: in vivo, human
condition description: human, plasma, oral, 160 mg/m2, t1/2, day 1, 160 mg/m^2, n=8, mean ± SD
metric name: half-life (h)

INSERT INTO results (molecule, result_number) VALUES
  ('Cc1cc(Nc2cc(N3CCN(C)CC3)nc(/C=C/c3ccccc3)n2)n[nH]1 [ENMD-2076]', 28.6);

---

assay name: Plasma pharmacokinetics in patients
Assay type: in vivo, human
condition description: human, plasma, oral, 120 mg/m2, AUC(0-inf), day 28, 120 mg/m^2, n=3, mean ± SD
metric name: AUC(0-inf) (ng·h/mL)

INSERT INTO assay_data (structure_notation, result_number) VALUES
  ('Cc1cc(Nc2cc(N3CCN(C)CC3)nc(/C=C/c3ccccc3)n2)n[nH]1', 16700);

---

assay name: Plasma pharmacokinetics in patients
Assay type: in vivo, human
condition description: human, plasma, oral, 120 mg/m2, Cmax, day 1, 120 mg/m^2, n=3, mean ± SD
metric name: Cmax (ng/mL)

INSERT INTO measurements (structure_notation, metric_name, result_number) VALUES
  ('Cc1cc(Nc2cc(N3CCN(C)CC3)nc(/C=C/c3ccccc3)n2)n[nH]1', 'Cmax', 93);

---

assay name: Plasma pharmacokinetics in patients
Format: in vivo, human
condition description: human, plasma, oral, 120 mg/m2, Tmax, day 28, 120 mg/m^2, n=3, mean ± SD
metric name: Tmax (h)

INSERT INTO results (structure_notation, unit_annotation, result_number) VALUES
  ('Cc1cc(Nc2cc(N3CCN(C)CC3)nc(/C=C/c3ccccc3)n2)n[nH]1', 'h', 2.7);

---

assay name: Plasma pharmacokinetics in patients
Type: in vivo, human
condition description: human, plasma, oral, 160 mg/m2, Vd/F, day 1, 160 mg/m^2, n=8, mean ± SD
metric name: Vd/F (L)

INSERT INTO measurements (structure_notation, result_number) VALUES
  ('Cc1cc(Nc2cc(N3CCN(C)CC3)nc(/C=C/c3ccccc3)n2)n[nH]1', 2020);
